Documented drug sensitivity score across a set of compounds
System: Bowes
assay-method-text: drug sensitivity score (DSS) (DSS (unitless, 0-50 scale)); higher = more sensitive (stronger viability inhibition); extreme values may be limits of the assay
conditions: 72 h; culture: 2D

[
  {
    "compound": "CCN1CCN(c2ccc(Nc3cc(N(C)C(=O)Nc4c(Cl)c(OC)cc(OC)c4Cl)ncn3)cc2)CC1",
    "drug sensitivity score": 0
  },
  {
    "compound": "Cn1ncnc1[C@H]1c2n[nH]c(=O)c3cc(F)cc(c23)N[C@@H]1c1ccc(F)cc1",
    "drug sensitivity score": 0
  },
  {
    "compound": "COc1cc(NS(C)(=O)=O)ccc1Nc1c2ccccc2nc2ccccc12",
    "drug sensitivity score": 0.5
  },
  {
    "compound": "CO[C@H]1C[C@@H]2CC[C@@H](C)[C@@](O)(O2)C(=O)C(=O)N2CCCC[C@H]2C(=O)O[C@H]([C@H](C)C[C@@H]2CC[C@@H](OCCO)[C@H](OC)C2)CC(=O)[C@H](C)/C=C(\\C)[C@@H](O)[C@@H](OC)C(=O)[C@H](C)C[C@H](C)/C=C/C=C/C=C/1C",
    "drug sensitivity score": 0
  },
  {
    "compound": "CC(C)C[C@H](NC(=O)CNC(=O)c1cc(Cl)ccc1Cl)B(O)O",
    "drug sensitivity score": 8.8
  },
  {
    "compound": "N#Cc1ccnc(N2C(=O)CC[C@H]2C(=O)N(c2cncc(F)c2)[C@H](C(=O)NC2CC(F)(F)C2)c2ccccc2Cl)c1",
    "drug sensitivity score": 0
  },
  {
    "compound": "FC(F)(F)c1ccc(CNc2ccc(Cc3c[nH]c4ncc(Cl)cc34)cn2)cn1",
    "drug sensitivity score": 0.2
  },
  {
    "compound": "COc1cc(OC2CCN(C)CC2)ccc1Nc1ncc2c(n1)n(C1CCCC1)c(=O)n2C",
    "drug sensitivity score": 3.3
  },
  {
    "compound": "CC(=O)O[C@]1(C(C)=O)CC[C@H]2[C@@H]3C=C(C)C4=CC(=O)CC[C@]4(C)[C@H]3CC[C@@]21C [Megestrol acetate]",
    "drug sensitivity score": 0
  },
  {
    "compound": "Cc1nn(C)c(COc2ccc(N3CCN(S(=O)(=O)N(C)C)CC3)cc2)c1-c1cccc2c(CCCOc3cccc4ccccc34)c(C(=O)O)n(CCN3CCOCC3)c12",
    "drug sensitivity score": 6.7
  }
]

----------
Documented drug sensitivity score across a set of molecules
Tested on: Bowes
assay-method-text: drug sensitivity score (DSS) (DSS (unitless, 0-50 scale)); higher = more sensitive (stronger viability inhibition); extreme values may be limits of the assay
conditions: 72 h; culture: 2D
measurement-name: drug sensitivity score

[
  {
    "molecule": "NC(=O)/C(=C/n1cnc(-c2cc(C(F)(F)F)cc(C(F)(F)F)c2)n1)c1cncnc1 [Eltanexor]",
    "assayed-target": "Bowes",
    "result-number": 14.8
  },
  {
    "molecule": "CC(=O)c1cc2c(o1)C(=O)c1ccccc1C2=O",
    "assayed-target": "Bowes",
    "result-number": 20.5
  },
  {
    "molecule": "Cc1c(C(=O)Nc2ccc(N3C[C@@H](C)O[C@@H](C)C3)nc2)cccc1-c1ccc(OC(F)(F)F)cc1",
    "assayed-target": "Bowes",
    "result-number": 4.1
  },
  {
    "molecule": "C[C@H]1O[C@@H](O[C@H]2[C@@H](O)C[C@H](O[C@H]3[C@@H](O)C[C@H](O[C@H]4CC[C@@]5(C)[C@H](CC[C@@H]6[C@@H]5C[C@@H](O)[C@]5(C)[C@@H](C7=CC(=O)OC7)CC[C@]65O)C4)O[C@@H]3C)O[C@@H]2C)C[C@H](O)[C@@H]1O",
    "assayed-target": "Bowes",
    "result-number": 12.9
  },
  {
    "molecule": "C[C@@H]1CCN(C(=O)CC#N)C[C@@H]1N(C)c1ncnc2[nH]ccc12",
    "assayed-target": "Bowes",
    "result-number": 0
  }
]

----------
Tested on: FM-MEL-6
assay-method-text: drug sensitivity score (DSS) (DSS (unitless, 0-50 scale)); higher = more sensitive (stronger viability inhibition); extreme values may be limits of the assay
conditions: 72 h; culture: 2D
Cut-off 0.1 on drug sensitivity score, inclusive. At or above means Criterion met; below means Criterion not met.

[
  {
    "molecule": "CC1=C2C[C@H]3[C@@H](CC[C@@H]4C[C@H](NS(C)(=O)=O)CC[C@@]43C)[C@@H]2CC[C@@]2(C1)O[C@@H]1C[C@H](C)CN[C@H]1[C@H]2C [Saridegib]",
    "label": "Criterion not met"
  },
  {
    "molecule": "COc1cc2ncnc(Nc3cccc(Cl)c3F)c2cc1OC(=O)N1CCN(C)C[C@H]1C [AZD3759]",
    "label": "Criterion not met"
  },
  {
    "molecule": "CN(CC(=O)N(Cc1ccc(C2CCCCC2)cc1)c1ccc(C(=O)O)cc1)S(=O)(=O)c1c(F)c(F)c(F)c(F)c1F [SH-4-54]",
    "label": "Criterion met"
  },
  {
    "molecule": "N#CCNC(=O)c1ccc(-c2ccnc(Nc3ccc(N4CCOCC4)cc3)n2)cc1 [Momelotinib]",
    "label": "Criterion met"
  },
  {
    "molecule": "O=C(O)C1(C(=O)O)CCC1.[NH2-].[NH2-].[Pt+2] [Carboplatin]",
    "label": "Criterion met"
  },
  {
    "molecule": "COc1ccccc1S(=O)(=O)Nc1ccc2c(c1)CN(C)C(=O)N2 [PFI-1]",
    "label": "Criterion met"
  },
  {
    "molecule": "C[C@H]1Oc2cc(cnc2N)-c2c(nn(C)c2C#N)CN(C)C(=O)c2ccc(F)cc21",
    "label": "Criterion met"
  },
  {
    "molecule": "CCCN(CCC)C(=O)C1=Cc2ccc(-c3ccc(C(=O)N4CCCC4)cc3)cc2N=C(N)C1 [Motolimod]",
    "label": "Criterion met"
  },
  {
    "molecule": "Cc1nc(C(=O)NCC(=O)O)c(O)c2ccc(Oc3ccccc3)cc12 [Roxadustat]",
    "label": "Criterion not met"
  },
  {
    "molecule": "CC(C)NC[C@@H](C(=O)N1CCN(c2ncnc3c2[C@H](C)C[C@H]3O)CC1)c1ccc(Cl)cc1 [Ipatasertib]",
    "label": "Criterion met"
  },
  {
    "molecule": "COc1cc2c(Nc3ccc(Cl)c(Cl)c3F)ncnc2cc1OC[C@@H]1C[C@@H]2CN(C)C[C@@H]2C1 [Tesevatinib]",
    "label": "Criterion met"
  },
  {
    "molecule": "O=C(NC[C@H](O)CN1CCc2ccccc2C1)c1cc(NC2COC2)ncn1",
    "label": "Criterion met"
  },
  {
    "molecule": "NC(=O)c1cccc(-c2cccc(OC(=O)NC3CCCCC3)c2)c1 [URB597]",
    "label": "Criterion not met"
  },
  {
    "molecule": "Nc1cc(F)ccc1NC(=O)c1ccc(CNC(=O)/C=C/c2cccnc2)cc1 [Tucidinostat]",
    "label": "Criterion met"
  },
  {
    "molecule": "CC[C@]1(O)C[C@@H]2CN(CCc3c([nH]c4ccccc34)[C@@](C(=O)OC)(c3cc4c(cc3OC)N(C)[C@H]3[C@@](O)(C(=O)OC)[C@H](OC(C)=O)[C@]5(CC)C=CCN6CC[C@]43[C@@H]65)C2)C1 [Vinblastine]",
    "label": "Criterion met"
  },
  {
    "molecule": "Cc1c(-c2ccc(N3CCc4cccc(C(=O)Nc5nc6ccccc6s5)c4C3)nc2C(=O)O)cnn1CC12CC3CC(CC(C3)C1)C2",
    "label": "Criterion not met"
  },
  {
    "molecule": "CC[C@]1(O)C[C@H]2CN(CCc3c([nH]c4ccccc34)[C@@](C(=O)OC)(c3cc4c(cc3OC)N(C=O)[C@H]3[C@@](O)(C(=O)OC)[C@H](OC(C)=O)[C@]5(CC)C=CCN6CC[C@]43[C@@H]65)C2)C1 [Vincristine]",
    "label": "Criterion met"
  },
  {
    "molecule": "CC[C@H](Nc1ncnc2[nH]cnc12)c1nc2cccc(F)c2c(=O)n1-c1ccccc1 [Idelalisib]",
    "label": "Criterion met"
  },
  {
    "molecule": "CN(C)C(=N)NC(=N)N [Metformin]",
    "label": "Criterion not met"
  },
  {
    "molecule": "CC(=O)Nc1cccc(-n2c(=O)n(C3CC3)c(=O)c3c(Nc4ccc(I)cc4F)n(C)c(=O)c(C)c32)c1 [Trametinib]",
    "label": "Criterion met"
  },
  {
    "molecule": "COCCNCc1ccc(-c2cc3nccc(Oc4ccc(NC(=O)C5(C(=O)Nc6ccc(F)cc6)CC5)cc4F)c3s2)nc1 [Sitravatinib]",
    "label": "Criterion met"
  },
  {
    "molecule": "Cc1ncc(Cl)cc1NCc1ccc(C(=O)N[C@@H](CC2CCCC2)C(=O)NC2CC2)s1",
    "label": "Criterion not met"
  },
  {
    "molecule": "O=C(Nc1cnn2ccc(N3CCC[C@@H]3c3cc(F)ccc3F)nc12)N1CC[C@H](O)C1 [Larotrectinib]",
    "label": "Criterion not met"
  },
  {
    "molecule": "CC(C)(C)C[C@@H]1N[C@@H](C(=O)N[C@H]2CC[C@H](O)CC2)[C@H](c2cccc(Cl)c2F)[C@]12C(=O)Nc1cc(Cl)ccc12",
    "label": "Criterion not met"
  },
  {
    "molecule": "Nc1ncnc2c1c(COc1cccc(Cl)c1)nn2C1CCOCC1",
    "label": "Criterion met"
  }
]
